Assign MIC to each entry below.
tested on: Escherichia coli; assay: Antibacterial activity against Escherichia coli ATCC 8739 assessed as inhibition of bacterial growth incubated for 24 hrs by microbroth dilution assay; type: functional
Numbers only, in µg/mL.

The cases that follow already have their MIC on record.
{"compound": "COc1ccc(-n2cc(COc3cc(=O)oc4ccccc34)nn2)cc1F", "testedTarget": "Escherichia coli", "MIC / µg/mL": 200}
{"compound": "O=c1cc(OCc2cn(-c3ccc(F)cc3)nn2)c2ccccc2o1", "testedTarget": "Escherichia coli", "MIC / µg/mL": 1600}
{"compound": "O=c1cc(OCc2cn(-c3ccccc3)nn2)c2ccccc2o1", "testedTarget": "Escherichia coli", "MIC / µg/mL": 1600}
{"compound": "O=c1cc(OCc2cn(-c3cccc([N+](=O)[O-])c3)nn2)c2ccccc2o1", "testedTarget": "Escherichia coli", "MIC / µg/mL": 1600}
{"compound": "COc1ccccc1-n1cc(COc2cc(=O)oc3ccccc23)nn1", "testedTarget": "Escherichia coli", "MIC / µg/mL": 1600}

IN: Please tell me: MIC of O=C(N[C@H](CO)[C@H](O)c1ccc([N+](=O)[O-])cc1)C(Cl)Cl [CHLORAMPHENICOL] , system Escherichia coli?
OUT: 1.2
